B1: MGC27345 (parent)
chain: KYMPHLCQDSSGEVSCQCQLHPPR

- Variants of: B1
- testSummary: protein stability index of a GFP-peptide fusion (GPS, HEK-293T) (PSI 1-6); higher = more stable;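 also: lentivirally expressed fusions sorted by FACS into six bins by GFP to DsRed ratio, PSI derived from sequencing read proportions per bin multiplied by bin number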
- measurementContext: c terminus: a fixed tail appended
Label T when protein stability index >= 2; otherwise F.

Answered examples (5):
{"mutationAnnotation": "Q17V", "category": "T"}
{"mutationAnnotation": "V14M", "category": "T"}
{"mutationAnnotation": "L6S", "category": "T"}
{"mutationAnnotation": "L6K", "category": "T"}
{"mutationAnnotation": "P4E", "category": "F"}

Now for another entry.
Confirm if protein stability index reported for the variant C7D is 2 or above.
T
